Values compiled from PubChem BioAssay (NCI).

Test system: M14 melanoma
Experiment: NCI tumour cell line growth inhibition, 48 h
Documented TGI across a set of compounds

COc1ccc2[nH]c(C(=O)N3CCN(C(=O)OCc4ccc5c(Br)cc(Br)c(O)c5n4)CC3)cc2c1: 0.753 µM
CC(C)=CCc1ccc2[nH]c3c(c2c1)C(=O)C(=O)C(C)=C3C(O)C(C)O (stereo unspecified): 3.9 µM
COc1cc(C2c3cc4c(cc3[C@@H](NCCCN3CCCC3=O)C3COC(=O)[C@H]23)OCO4)cc(OC)c1O (stereo partly specified): > 100 µM

Need TGI, item COc1nc(SC)nc2c1C(O)n1c(nc3ccccc31)S2 (stereo unspecified)
> 100 µM

Need TGI, item Cn1c(=O)n2c(=O)n(C)c(=O)n2c1=O
> 100 µM

Need TGI, item COc1cc2c(c(OC)c1)C(C)=NC(C)C2 (stereo unspecified)
> 100 µM

Need TGI, item O=c1c2ccccc2sc2nc(CCl)nn12
60.3 µM

----------
Test system: A549 NSCLC
Assay: NCI tumour cell line growth inhibition, 48 h
value type: GI50

Please review the following examples before continuing.
NCCSCC(N)C(=O)O (stereo not given): > 497000 nM
O=C1C(C(Nc2ccccc2)c2ccccc2)=C([O-])c2ccccc21.O=C1C(C(Nc2ccccc2)c2ccccc2)=C([O-])c2ccccc21.[Co+2] (stereo not given): 4200 nM
COc1cc(C(=O)/C=C/c2cc(-c3cc(OC)c(OC)c(OC)c3)n[nH]2)cc(OC)c1OC: 2720 nM
Cc1ccnc2[nH]c(-c3cccc4ccccc34)cc(=O)c12: 13.2 nM
CCN(CC)CCCNc1ccc2ncn3c4ccc(O)cc4c(=O)c1c23: 336 nM
N#Cc1ccccc1C#C/C=C\C#Cc1cccs1: 25000 nM
N#Cc1c(-c2ccc(Cl)cc2)cc(-c2cc(O)ccc2O)nc1N: 2330 nM
Cc1ccc2nc3ccccc3c(NCc3ccccc3)c2c1: 2630 nM

Need GI50, item COc1ccc(OC)c(Nc2nc3ccccc3c3c2-c2ccc(OC)cc2C3=O)c1
> 100000 nM

Need GI50, item Nc1ncc2ccc3c(ccn3C3CC(O)C(CO)O3)c2n1 (stereo not given)
> 100000 nM

----------
Documented GI50 across a set of compounds
Test system: SK-MEL-2 melanoma
Assay: NCI tumour cell line growth inhibition, 48 h

Please review the following examples before continuing.
Cc1ccc(S(=O)(=O)Oc2ccccc2-c2ccccc2)cc1: 6.55 µM
NCCOc1ncccc1/C=C1\C2C=CC=CC2C2C=CC(F)=CC12 (stereo not drawn): 2.03 µM
COc1cc(C(=O)/C=C/c2cc(-c3cc(OC)c(OC)c(OC)c3)n[nH]2)cc(OC)c1OC: 1.96 µM
Cn1ccnc1C(=O)/C=C/c1ccc(C(=O)Nc2ccccc2F)cc1: 6.25 µM
O=[N+]([O-])[O][Sn]([O][Sn]([O][N+](=O)[O-])([c]1ccccc1)[c]1ccccc1)([c]1ccccc1)[c]1ccccc1: > 100 µM

Need GI50, item COc1ccc2oc(=O)cc(C3c4ccc([nH]4)C(c4cc(=O)oc5ccc(OC)cc45)c4ccc([nH]4)C(c4cc(=O)oc5ccc(OC)cc45)c4ccc([nH]4)C(c4cc(=O)oc5ccc(OC)cc45)c4ccc3[nH]4)c2c1 (stereo not drawn)
3.02 µM

Need GI50, item COC(=O)N1c2ccc3c(nc(Cc4ccccc4)n3[C@H]3CCC[C@H](C(=O)O)C3)c2CC[C@@H]1C
34.3 µM

Need GI50, item CO/N=C(\COc1ccc2c(=O)cc(-c3ccccc3)oc2c1)c1ccc(F)cc1
24 µM

----------
Tested on: DU-145 prostate
Experiment: NCI tumour cell line growth inhibition, 48 h
Documented TGI across a set of compounds

CCCCCCC/C(=N\N=C(N)N)c1ccc(O)cc1: 11 µM

For DU-145 prostate, provide TGI of CCN(C(=O)N[C@@H](Cc1ccccc1)C(=O)N[C@@H](CC(C)C)C(=O)NC)c1ccccc1 please.
> 100 µM

For DU-145 prostate, provide TGI of O=C(N/N=C\c1cc(Cl)ccc1O)c1ccncc1 please.
> 100 µM

For DU-145 prostate, provide TGI of O=C(O)c1cc2cc(OCc3ccccc3)ccc2[nH]1 please.
> 100 µM

For DU-145 prostate, provide TGI of COc1c(C)c(OC)c2c(c1O)[C@@H]1[C@@H]3Cc4c(OC)c(C)c(OC)c(O)c4[C@H](CNC(=O)c4ccc5ccccc5n4)N3[C@@H](C#N)[C@H](C2)N1C please.
> 0.0296 µM

For DU-145 prostate, provide TGI of Cc1cc(=O)[nH]c(NN2C(Cl)C(=O)C2c2ccc(O)cc2)n1 (stereo not given) please.
22.8 µM

For DU-145 prostate, provide TGI of Clc1ccc(C2c3ccccc3-c3nc4ccccc4n32)cc1 (stereo not given) please.
> 100 µM

For DU-145 prostate, provide TGI of Cc1ccc(N=Nc2c(O)c(S(=O)(=O)O)cc3cc(S(=O)(=O)O)ccc23)c(C)c1 please.
> 100 µM

For DU-145 prostate, provide TGI of O=c1c2ccccc2sc2nc(CCl)nn12 please.
21.2 µM

For DU-145 prostate, provide TGI of Cn1ccnc1C(=O)/C=C/c1ccc(C(=O)Nc2ccccc2F)cc1 please.
3.32 µM

----------
Documented GI50 across a set of molecules
Tested on: OVCAR-3 ovarian
Test: NCI tumour cell line growth inhibition, 48 h

Please review the following examples before continuing.
COc1cc2c3c(n(CCCNCCCNCCCn4c5c(c6cc(OC)c(OC)cc6c4=O)C(=O)c4ccccc4-5)c(=O)c2cc1OC)-c1ccccc1C3=O: 12.6 µM
N#Cc1ccccc1C#C/C=C\C#Cc1cccs1: 14.1 µM
O=c1c2c3c(sc2n2c(CCl)nnc2n1Cc1ccccc1)CCCC3: 1.76 µM
NCCOc1ncccc1/C=C1\C2C=CC=CC2C2C=CC(F)=CC12 (centres undefined): 1.45 µM

Need GI50, item O=C(N/N=C\c1cc(Cl)ccc1O)c1ccncc1
0.617 µM

Need GI50, item Cc1ccc2nc3ccccc3c(NCc3ccccc3)c2c1
3.09 µM

----------
Tested on: HOP-92 NSCLC
Experiment: NCI tumour cell line growth inhibition, 48 h
Rule: TGI under 40 µM gives 0.0, otherwise 1.0.

Examples with answers:
C=C1CC[C@@H]2C(C)(C)C(O)CCC2(C)C1COc1ccc2ccc(=O)oc2c1 (some centres undefined): 0.0
CN(C)c1ccc(/C=C2\N=C(N/N=C/c3ccc(N(C)C)cc3)NC2=O)cc1: 1.0
c1ccc2c(c1)Sc1ccccc1N2CC1CN2CCC1CC2 (centres undefined): 0.0
Cc1ccc(-n2c(C)n[nH]c2=O)cc1: 1.0
CC(Cc1ccc(O)cc1)NCC(O)c1ccc(O)c(O)c1 (centres undefined): 1.0

Does the compound CO/C=C(/C(=O)OC)c1ccccc1Oc1c(F)c(F)c(F)c(F)c1F have recorded TGI that is 40 µM or more?
1.0

Does the compound CC12CC[C@@H]3c4cc5c(cc4CC[C@H]3[C@@H]1CCC2O)oc1cc(F)ccc15 (some centres undefined) have recorded TGI that is 40 µM or more?
1.0

Does the compound Cc1cc2c(C(C)C)c(O)c(O)c(C=NCC3CCCN4CCCCC34)c2cc1-c1cc2c(C=NCC3CCCN4CCCCC34)c(O)c(O)c(C(C)C)c2cc1C (centres undefined) have recorded TGI that is 40 µM or more?
1.0

Does the compound O=[N+]([O-])[O][Sn]([O][Sn]([O][N+](=O)[O-])([c]1ccccc1)[c]1ccccc1)([c]1ccccc1)[c]1ccccc1 have recorded TGI that is 40 µM or more?
1.0

----------
Documented TGI across a set of compounds
System: A498 renal
Experiment: NCI tumour cell line growth inhibition, 48 h

Please review the following examples before continuing.
COc1ccc(-c2c3ccccc3c(-c3ccc(OC)cc3)c3ccccc23)cc1: > 100 µM
OC(c1ccc(F)cc1)(c1ccc(F)cc1)C1CC1: 77.8 µM
O=C(c1c(Cl)cc(Cl)cc1Cl)N(Cc1cccnc1)C(=S)N(Cc1cccnc1)C(=O)c1c(Cl)cc(Cl)cc1Cl: 51.6 µM

Need TGI, item CCOC(=O)/C=C\[C@H]1OC(C)(C)O[C@H]1[C@H](O)[C@H]1COC(C)(C)O1
37.6 µM

Need TGI, item O=C(CC1(O)C(=O)N(Cc2ccccc2)c2ccc(Br)cc21)c1ccc(C(=O)NCC2CCC3(CC2)OOC2(CCCCC2)OO3)cc1 (stereo not given)
6.86 µM

Need TGI, item O=C(/C=C/c1ccccc1O)C(c1ccccc1)c1ccccc1
> 100 µM

----------
System: LOX IMVI melanoma
Test: NCI tumour cell line growth inhibition, 48 h; in the data active means GI50 below about 0.43 µM; inactive means the rest
I would appreciate it if you answered using one of these outcomes: active, inactive

Examples with answers:
N#Cc1ccccc1C#C/C=C\C#Cc1cccs1: inactive
O=C1CS/C(=N/S(=O)(=O)c2ccc(N3N=C4c5ccccc5CC4C3c3cccs3)cc2)N(c2ccccc2)C1 (stereo not drawn): inactive
CCCCCCC/C(=N\N=C(N)N)c1ccc(O)cc1: inactive
COc1ccc2oc(=O)cc(C3c4ccc([nH]4)C(c4cc(=O)oc5ccc(OC)cc45)c4ccc([nH]4)C(c4cc(=O)oc5ccc(OC)cc45)c4ccc([nH]4)C(c4cc(=O)oc5ccc(OC)cc45)c4ccc3[nH]4)c2c1 (stereo not drawn): inactive
O=C(O)[C@@H]1CCCN1Cc1cc2cc3c(cc2c2cc(OCc4ccccc4)ccc12)OCO3: inactive

Write down the call the test reported for this compound. Item: NC(=O)[C@@H](CCC(F)(F)F)N(Cc1ccc(-c2ncon2)cc1F)S(=O)(=O)c1ccc(Cl)cc1
inactive

Write down the call the test reported for this compound. Item: C[C@@H]1CCC2[C@@H](C)[C@@H](OC3CCC(O)CC3)OC3O[C@@]4(C)CCC1[C@]32OO4 (stereo partly drawn)
inactive

Write down the call the test reported for this compound. Item: N#Cc1c(-c2ccc(Cl)cc2)cc(-c2cc(O)ccc2O)nc1N
inactive

Write down the call the test reported for this compound. Item: O=C1N=C(c2c(-c3[nH]c(=O)c4ccc(Br)cc4c3O)c(O)c3ccccc3c2O)C(=O)c2cc(Br)ccc21
active

Write down the call the test reported for this compound. Item: O=C(CC1(O)C(=O)N(Cc2ccccc2)c2ccc(Br)cc21)c1ccc(C(=O)NCC2CCC3(CC2)OOC2(CCCCC2)OO3)cc1 (stereo not drawn)
active

Write down the call the test reported for this compound. Item: Cc1ccc(S(=O)(=O)Oc2ccccc2-c2ccccc2)cc1
inactive

Write down the call the test reported for this compound. Item: CC1=C2[C@H]3OC(=O)[C@@H](C)[C@@H]3CC[C@@]2(C)C=CC1=O
inactive

Write down the call the test reported for this compound. Item: COc1ccc(NC(=O)c2sc3nc(C)c(C(=O)/C=C/c4ccccc4)cc3c2N)cc1
inactive

Write down the call the test reported for this compound. Item: COc1cc2c3c(n(CCCN(C)C)c(=O)c2cc1OC)-c1cc2c(cc1C3=O)OCO2
active
